Molecular target: T1, human PVRIG-his (AcroBiosystems, Cat NO. PVG-H52H4) (human, UniProt Q6DKI7 41-171, limits assumed)
T1 construct: also called human PVRIG protein
T1 sequence (looked up): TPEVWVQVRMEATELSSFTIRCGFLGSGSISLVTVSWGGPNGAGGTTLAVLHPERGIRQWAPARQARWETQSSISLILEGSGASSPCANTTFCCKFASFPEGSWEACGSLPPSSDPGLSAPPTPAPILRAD
Experiment: SPR (BIAcore), antibody captured on Protein A chip, human PVRIG-His analyte
ENDPOINT NAME: log10 kon (log10 of the value in M⁻¹ s⁻¹)
Lab note - kon converted to log10 from values in M⁻¹ s⁻¹.

Report log10 kon for every entry below.
1. PVRIG-A118-H5 (Fc fusion, humanized variant of PVRIG-A118; also called A118.VH5; not shown: constant part not restated for the humanized forms; parents are VHH-hinge-CH2-CH3 of human IgG1; detected by anti-human) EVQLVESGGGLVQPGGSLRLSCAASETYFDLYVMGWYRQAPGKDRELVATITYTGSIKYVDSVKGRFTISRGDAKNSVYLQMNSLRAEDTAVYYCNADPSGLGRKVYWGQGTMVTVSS
2. PVRIG-A50 (Fc fusion, heavy chain antibody VHH-hinge-CH2-CH3, human IgG1 constant part; also called PVRIG-50; not shown: human IgG1 hinge-CH2-CH3) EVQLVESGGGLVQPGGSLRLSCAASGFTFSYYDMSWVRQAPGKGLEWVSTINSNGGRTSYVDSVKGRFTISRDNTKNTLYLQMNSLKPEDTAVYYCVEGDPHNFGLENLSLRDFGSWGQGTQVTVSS
3. PVRIG-A50-H1b (Fc fusion, humanized variant of PVRIG-A50; also called A50.VH1b; not shown: constant part not restated for the humanized forms; parents are VHH-hinge-CH2-CH3 of human IgG1; detected by anti-human) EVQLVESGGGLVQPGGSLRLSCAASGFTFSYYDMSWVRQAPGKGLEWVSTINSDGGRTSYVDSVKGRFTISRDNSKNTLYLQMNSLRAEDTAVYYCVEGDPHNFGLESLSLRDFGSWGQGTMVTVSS
4. PVRIG-A118-H7 (Fc fusion, humanized variant of PVRIG-A118; also called A118.VH7; not shown: constant part not restated for the humanized forms; parents are VHH-hinge-CH2-CH3 of human IgG1; detected by anti-human) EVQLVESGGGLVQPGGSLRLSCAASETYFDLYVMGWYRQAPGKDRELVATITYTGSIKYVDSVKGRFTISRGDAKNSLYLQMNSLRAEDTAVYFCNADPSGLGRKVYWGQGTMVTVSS
5. PVRIG-A50-H2a (Fc fusion, humanized variant of PVRIG-A50; also called A50.VH2a; not shown: constant part not restated for the humanized forms; parents are VHH-hinge-CH2-CH3 of human IgG1; detected by anti-human) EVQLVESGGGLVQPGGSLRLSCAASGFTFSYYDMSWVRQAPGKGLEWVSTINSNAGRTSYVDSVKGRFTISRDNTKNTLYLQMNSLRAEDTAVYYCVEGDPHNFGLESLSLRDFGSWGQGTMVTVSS

[reply]
1. 6.45
2. 5.65
3. 5.54
4. 6.38
5. 5.44

For every item below, please supply its log10 kon.
1. PVRIG-A50-H1 (Fc fusion, humanized variant of PVRIG-A50; also called A50.VH1; not shown: constant part not restated for the humanized forms; parents are VHH-hinge-CH2-CH3 of human IgG1; detected by anti-human) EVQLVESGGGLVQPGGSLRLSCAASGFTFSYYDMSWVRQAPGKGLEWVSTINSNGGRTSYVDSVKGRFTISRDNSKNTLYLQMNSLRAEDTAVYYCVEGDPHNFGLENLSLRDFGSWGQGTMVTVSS
2. PVRIG-A118-H3 (Fc fusion, humanized variant of PVRIG-A118; also called A118.VH3; not shown: constant part not restated for the humanized forms; parents are VHH-hinge-CH2-CH3 of human IgG1; detected by anti-human) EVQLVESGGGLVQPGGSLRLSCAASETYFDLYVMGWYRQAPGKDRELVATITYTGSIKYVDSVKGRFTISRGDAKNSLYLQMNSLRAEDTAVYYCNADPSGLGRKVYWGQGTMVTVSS

[reply]
1: 5.61; 2: 6.41
